Biological target: MshC W227H mutant (Mycolicibacterium smegmatis, UniProt A0QZY0, W227H)
pKi: −log10 of the molar value.
assay-readout: pKi

{"columns": ["compound", "reported-result"],
 "data": [
  ["Nc1ncnc2c1ncn2[C@@H]1O[C@H](COS(=O)(=O)NC(=O)[C@@H](N)CS)[C@@H](O)[C@H]1O [CSA, reference compound]", 7.52]
]}

---

Target: MshC D251N mutant (Mycolicibacterium smegmatis, UniProt A0QZY0, D251N)
pKi: −log10 of the molar value.

{"columns": ["compound", "tested-target", "pKi"],
 "data": [
  ["Nc1ncnc2c1ncn2[C@@H]1O[C@H](COS(=O)(=O)NC(=O)[C@@H](N)CS)[C@@H](O)[C@H]1O [CSA, reference compound]", "MshC D251N mutant (Mycolicibacterium smegmatis, UniProt A0QZY0, D251N)", 6.28]
]}
